# Test system: CAKI-1
# protocolNotes: NCI tumour cell line growth inhibition, 48 h
Calls of active or inactive are those of the source. Rule as the data show it: active = GI50 up to about 1.1 µM and inactive = higher. Square brackets hold non-standard residues; d marks the D form. Peptide text beside a SMILES is read from it. Ac5c = NC1(C(=O)O)CCCC1
readoutLabel: GI50

[
  {
    "compound": "N=S(c1ccccc1[N+](=O)[O-])c1ccccc1[N+](=O)[O-]",
    "GI50": "2.07 µM (inactive)"
  },
  {
    "compound": "c1ccc(C2Nc3ccccc3C3OCCCC23)cc1 (stereo unspecified)",
    "GI50": "2.47 µM (inactive)"
  },
  {
    "compound": "Cc1occc(=O)c1O [MALTOL]",
    "GI50": "> 100 µM (inactive)"
  },
  {
    "compound": "C/C(=N\\Nc1nc2ccccc2[nH]1)c1ccncn1",
    "GI50": "0.123 µM (active)"
  }
]

Please state GI50 for every compound in the list that follows.
1. CN1CN(c2ccccc2)C2(CCN(Cc3nc4ccccc4s3)CC2)C1=O
2. NCC(=O)NC1(C(=O)O)CCCC1 (H-Gly-[Ac5c]-OH)
3. CCOC(=O)n1ccc2c(C(=O)OC)c(C(=O)OC)cc(/C(=C/C(=O)OC)C(=O)OC)c21
4. COC(=O)c1ccccc1C1CN=NC12Cc1c(C)c3c(c(C)c1C2=O)CCC3 (stereo unspecified)
5. COC(=O)C1CC2CC1C1C2SC(F)(F)C1(F)F (stereo unspecified)

(A)
1. 20.1 µM (inactive)
2. > 100 µM (inactive)
3. > 100 µM (inactive)
4. > 100 µM (inactive)
5. > 100 µM (inactive)

Please state GI50 for every compound in the list that follows.
1. CCOP(=O)(C/C=C/Cn1nc(Br)c(=O)[nH]c1=O)OCC
2. COC(=O)c1c[nH]cc1CCCCc1c[nH]cc1C(=O)OC

(A)
1. > 100 µM (inactive)
2. > 100 µM (inactive)

Each recorded value in this set is attributed to ChEMBL document CHEMBL1201862.
